src = patent US4543408A

# Format: physicochemical
# studyConditions: solid salt storage, 2880 h
Here the recorded degradation at 45° C. after 120 days is given for each entry.
# value in %; strip the unit string

Below are worked cases with known answers.
| compound | degradation at 45° C. after 120 days, % |
| --- | --- |
| C[S+](CCC(N)C(=O)[O-])CC1OC(n2cnc3c(N)ncnc32)C(O)C1O (stereo not drawn) [SAM.nHCl, n=3, reference compound] | 60 |
| C[S+](CCC(N)C(=O)[O-])CC1OC(n2cnc3c(N)ncnc32)C(O)C1O (stereo not drawn) [SAM.4HCl.0.4H2 O] | 10 |
| C[S+](CCC(N)C(=O)[O-])CC1OC(n2cnc3c(N)ncnc32)C(O)C1O (stereo not drawn) [SAM.2.5H2 SO4] | 1.5 |

Recorded degradation at 45° C. after 120 days for C[S+](CCC(N)C(=O)[O-])CC1OC(n2cnc3c(N)ncnc32)C(O)C1O (stereo not drawn) [SAM.nH2 SO4, n=1.5, reference compound] , please?
60

Then this compound: C[S+](CCC(N)C(=O)[O-])CC1OC(n2cnc3c(N)ncnc32)C(O)C1O (stereo not drawn) [SAM.1.5H2 SO4.nHCl, n=3]
10

---

# testName: physchem
# studyConditions: water
measure: solubility

Recorded solubility for C[S+](CCC(N)C(=O)[O-])CC1OC(n2cnc3c(N)ncnc32)C(O)C1O (stereo not shown) [SAM.2.5H2 SO4] , please?
> 200 mg/mL

---

Here the recorded degradation at 45° C. after 180 days is given for each entry.
# Type: physicochemical
# studyConditions: solid salt storage, 4320 h

Below are worked cases with known answers.
| molecule | measure | measuredResult |
| --- | --- | --- |
| C[S+](CCC(N)C(=O)[O-])CC1OC(n2cnc3c(N)ncnc32)C(O)C1O (stereo not drawn) [SAM.2HCl.nH2 SO4, n=0.5, reference compound] | degradation at 45° C. after 180 days | 80% |
| C[S+](CCC(N)C(=O)[O-])CC1OC(n2cnc3c(N)ncnc32)C(O)C1O (stereo not drawn) [SAM.6HCl.0.7H2 O] | degradation at 45° C. after 180 days | 14% |

Shifting focus to the molecule that follows.
Recorded degradation at 45° C. after 180 days for C[S+](CCC(N)C(=O)[O-])CC1OC(n2cnc3c(N)ncnc32)C(O)C1O (stereo not drawn) [SAM.2HCl.nH2 SO4, n=1] , please?
14%

---

# Assay type: physicochemical
# studyConditions: solid salt storage, 5760 h
measure: degradation at 45° C. after 240 days (%)
# value in %; strip the unit string

| molecule | degradation at 45° C. after 240 days (%) |
| --- | --- |
| C[S+](CCC(N)C(=O)[O-])CC1OC(n2cnc3c(N)ncnc32)C(O)C1O (stereo not shown) [SAM.nH2 SO4, n=1, reference compound] | 100 |

Recorded degradation at 45° C. after 240 days for C[S+](CCC(N)C(=O)[O-])CC1OC(n2cnc3c(N)ncnc32)C(O)C1O (stereo not shown) [SAM.nH2 SO4, n=1.5, reference compound] , please?
100

Then this molecule: C[S+](CCC(N)C(=O)[O-])CC1OC(n2cnc3c(N)ncnc32)C(O)C1O (stereo not shown) [SAM.2HCl.nH2 SO4, n=2]
17

Then this molecule: C[S+](CCC(N)C(=O)[O-])CC1OC(n2cnc3c(N)ncnc32)C(O)C1O (stereo not shown) [SAM.5HCl]
4.5
